Data credit: paper PMC9650428

For each record, write down the corresponding Kd.
- Tested System: SotB E29A (Escherichia coli, UniProt P31122, E29A)
- Construct: The full-length sotB and lapC genes from the E. coli MG1655 genome were subcloned into the cloning vector pET28a; 8xHis (C); made in house; host or cells: E. coli C43(DE3)
- Sequence (P31122 whole entry E29A): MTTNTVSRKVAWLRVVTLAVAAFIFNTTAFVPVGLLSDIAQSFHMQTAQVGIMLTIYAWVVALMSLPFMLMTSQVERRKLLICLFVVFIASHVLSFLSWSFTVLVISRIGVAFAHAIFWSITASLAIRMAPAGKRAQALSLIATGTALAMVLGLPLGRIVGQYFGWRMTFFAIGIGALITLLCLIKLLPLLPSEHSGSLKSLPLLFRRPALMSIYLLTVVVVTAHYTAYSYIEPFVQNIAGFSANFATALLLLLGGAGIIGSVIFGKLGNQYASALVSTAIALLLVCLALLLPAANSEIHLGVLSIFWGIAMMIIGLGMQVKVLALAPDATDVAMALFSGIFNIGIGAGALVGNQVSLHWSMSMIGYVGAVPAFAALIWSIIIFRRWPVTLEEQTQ
- Assay Protocol: SPR affinity assay, SotB variant E29A
- Settings: read-out: KD, binding affinity with E29A

# batch size: 2; output Kd per entry
1. OC1OC[C@H](O)[C@H](O)[C@H]1O (mixture of isomers)
2. CC(C)S[C@@H]1O[C@H](CO)[C@H](O)[C@H](O)[C@H]1O [IPTG, isopropyl-β-D-1-thiogalactopyranoside]

1. 5.1 mM
2. 7.6 mM
